- Tested on: HepG2
- EXPERIMENT NOTES: Antiproliferative activity against human HepG2 cells after 48 hrs by MTT assay
- Type: functional, cell-based
- MEASUREMENT CONDITIONS: HepG2, 48 h
ASSAY METRIC: IC50 (µM)
Please respond with the number in µM and leave the unit unwritten.

Answered cases to consult:
* O=c1c(Nc2ccc(I)cc2)c(-c2ccco2)oc2c(Cl)cc(Cl)cc12 | 5.22
* COc1ccc(Nc2c(-c3ccco3)oc3ccccc3c2=O)cc1 | 19.1

Now take the following molecule into account.
Enquiry: For the molecule shown here, O=c1c(Nc2ccc([N+](=O)[O-])cc2)c(-c2ccco2)oc2c(Cl)cc(Cl)cc12 , give the reported IC50.
Return: 6.45

###

Parameter: viability at 72 h. Scope: all listed entries.
- EXPERIMENT NOTES: Cytotoxicity against human HEK293 cells assessed as cell viability up to 200 uM after 72 hrs by MTT assay relative to control
- Type: cell-based
- MEASUREMENT CONDITIONS: read-out: Activity
Please respond with the number in % and leave the unit unwritten.

* COc1ccc(Nc2c(-c3ccco3)oc3ccccc3c2=O)cc1 | 85
* O=c1c(Nc2ccc(I)cc2)c(-c2ccco2)oc2c(Cl)cc(Cl)cc12 | 85

Enquiry: For the compound shown here, O=c1c(Nc2ccc([N+](=O)[O-])cc2)c(-c2ccco2)oc2c(Cl)cc(Cl)cc12 , give the reported viability at 72 h.
Return: 85
